SYSTEM: MAP/microtubule affinity-regulating kinase 4 (Mus musculus, UniProt Q8CIP4)
Sequence (Q8CIP4 whole entry): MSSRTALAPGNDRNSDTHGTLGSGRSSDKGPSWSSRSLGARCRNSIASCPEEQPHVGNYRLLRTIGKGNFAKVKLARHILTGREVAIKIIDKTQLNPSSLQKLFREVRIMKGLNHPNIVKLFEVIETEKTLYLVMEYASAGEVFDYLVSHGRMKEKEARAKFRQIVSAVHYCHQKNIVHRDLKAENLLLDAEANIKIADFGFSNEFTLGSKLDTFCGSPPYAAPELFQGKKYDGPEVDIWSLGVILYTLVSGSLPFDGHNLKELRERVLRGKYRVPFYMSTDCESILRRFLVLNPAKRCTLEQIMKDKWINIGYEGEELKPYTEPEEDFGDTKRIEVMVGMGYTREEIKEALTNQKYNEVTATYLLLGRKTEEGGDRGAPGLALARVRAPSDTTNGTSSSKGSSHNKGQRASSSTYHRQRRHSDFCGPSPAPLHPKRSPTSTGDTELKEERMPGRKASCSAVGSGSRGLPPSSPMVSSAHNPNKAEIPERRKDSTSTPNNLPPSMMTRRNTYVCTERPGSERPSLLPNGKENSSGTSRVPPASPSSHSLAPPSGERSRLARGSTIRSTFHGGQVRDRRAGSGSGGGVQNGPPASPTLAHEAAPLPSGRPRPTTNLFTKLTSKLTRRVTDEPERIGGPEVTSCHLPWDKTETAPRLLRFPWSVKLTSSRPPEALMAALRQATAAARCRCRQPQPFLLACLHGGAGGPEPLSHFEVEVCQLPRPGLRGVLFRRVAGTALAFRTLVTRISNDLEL
ASSAY_SUMMARY: Inhibition of MARK4 in mouse cortical neurons assessed as inhibition of okadaic acid-induced tau phosphorylation at S262 residue preincubated for 15 mins followed okadaic acid challenge for 1.5 hrs by immunostaining method
MEASURED_PARAMETER: IC50 (nM)
Kindly answer with a numeric value in nM, unit omitted.

// lookup IC50 | system=MAP/microtubule affinity-regulating kinase 4 (Mus musculus, UniProt Q8CIP4) | key= Cn1cc(-c2cnc3c(-c4csc(C(=O)NCC(F)(F)F)c4)cnn3c2)cn1 60

// lookup IC50 | system=MAP/microtubule affinity-regulating kinase 4 (Mus musculus, UniProt Q8CIP4) | key= O=C(NCC(F)(F)F)c1cc(-c2cnn3cc(-c4ccc(OCCN5CCCCC5)cc4)cnc23)cs1 50

// lookup IC50 | system=MAP/microtubule affinity-regulating kinase 4 (Mus musculus, UniProt Q8CIP4) | key= Cn1cc(-c2cnc3c(-c4csc(C(=O)N[C@@H]5CCCC[C@@H]5N)c4)cnn3c2)cn1 (racemic) 2

// lookup IC50 | system=MAP/microtubule affinity-regulating kinase 4 (Mus musculus, UniProt Q8CIP4) | key= Cc1sc(C(=O)N[C@@H]2[C@H](N)CCCC2(F)F)cc1-c1cnn2cc(Cl)cnc12 280

###

ASSAY_SUMMARY: Half life in Beagle dog at 0.5 mL/kg, iv administered through catheter or 5 mL/kg, administered through gastric gavage measured after 24 hrs by LC-MS/MS analysis
Format: ADME, organism-based, Canis lupus familiaris
MEASUREMENT_PARAMETERS: in vivo
MEASURED_PARAMETER: half-life
Reply with the number, then its unit.

Suppose we examine the compound Cc1sc(C(=O)N[C@@H]2[C@H](N)CCCC2(F)F)cc1-c1cnn2cc(Cl)cnc12 ; what half-life value has been reported? 1 h

###

SYSTEM: Activin receptor type-1B (Homo sapiens, UniProt P36896)
Sequence (P36896 whole entry, the tested form may be a part): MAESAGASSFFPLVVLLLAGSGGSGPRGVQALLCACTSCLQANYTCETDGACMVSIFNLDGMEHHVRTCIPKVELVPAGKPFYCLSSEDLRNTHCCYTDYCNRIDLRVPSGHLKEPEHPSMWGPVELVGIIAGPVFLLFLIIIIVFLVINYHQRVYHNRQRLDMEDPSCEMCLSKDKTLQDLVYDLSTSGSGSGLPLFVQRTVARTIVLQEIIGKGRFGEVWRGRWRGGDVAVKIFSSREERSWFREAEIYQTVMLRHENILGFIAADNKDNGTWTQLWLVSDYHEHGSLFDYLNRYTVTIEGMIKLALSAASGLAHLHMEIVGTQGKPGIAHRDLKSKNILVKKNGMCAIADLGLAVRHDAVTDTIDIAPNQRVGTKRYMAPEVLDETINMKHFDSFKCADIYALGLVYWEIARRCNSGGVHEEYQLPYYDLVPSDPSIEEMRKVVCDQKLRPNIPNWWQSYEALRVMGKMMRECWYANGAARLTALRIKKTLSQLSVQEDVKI
ASSAY_SUMMARY: Inhibition of recombinant human GST-tagged ALK4 catalytic domain expressed in baculovirus expression system by Z'-LYTE assay
MEASURED_PARAMETER: pIC50
A value of pIC50 is the negative decimal logarithm of a concentration given in moles per litre.

// lookup pIC50 | system=Activin receptor type-1B (Homo sapiens, UniProt P36896) | key= O=C(NCC(F)(F)F)c1cc(-c2cnn3cc(-c4ccc(OCCN5CCCCC5)cc4)cnc23)cs1 6.70

// lookup pIC50 | system=Activin receptor type-1B (Homo sapiens, UniProt P36896) | key= Cn1cc(-c2cnc3c(-c4csc(C(=O)NCC(F)(F)F)c4)cnn3c2)cn1 6.77

// lookup pIC50 | system=Activin receptor type-1B (Homo sapiens, UniProt P36896) | key= Cn1cc(-c2cnc3c(-c4csc(C(=O)N[C@@H]5CCCC[C@@H]5N)c4)cnn3c2)cn1 (racemic) 6.14

###

So I've got a bunch of compounds here, and I need their IC50 values.
SYSTEM: MAP/microtubule affinity-regulating kinase 3 (Homo sapiens, UniProt P27448)
Sequence (P27448 whole entry): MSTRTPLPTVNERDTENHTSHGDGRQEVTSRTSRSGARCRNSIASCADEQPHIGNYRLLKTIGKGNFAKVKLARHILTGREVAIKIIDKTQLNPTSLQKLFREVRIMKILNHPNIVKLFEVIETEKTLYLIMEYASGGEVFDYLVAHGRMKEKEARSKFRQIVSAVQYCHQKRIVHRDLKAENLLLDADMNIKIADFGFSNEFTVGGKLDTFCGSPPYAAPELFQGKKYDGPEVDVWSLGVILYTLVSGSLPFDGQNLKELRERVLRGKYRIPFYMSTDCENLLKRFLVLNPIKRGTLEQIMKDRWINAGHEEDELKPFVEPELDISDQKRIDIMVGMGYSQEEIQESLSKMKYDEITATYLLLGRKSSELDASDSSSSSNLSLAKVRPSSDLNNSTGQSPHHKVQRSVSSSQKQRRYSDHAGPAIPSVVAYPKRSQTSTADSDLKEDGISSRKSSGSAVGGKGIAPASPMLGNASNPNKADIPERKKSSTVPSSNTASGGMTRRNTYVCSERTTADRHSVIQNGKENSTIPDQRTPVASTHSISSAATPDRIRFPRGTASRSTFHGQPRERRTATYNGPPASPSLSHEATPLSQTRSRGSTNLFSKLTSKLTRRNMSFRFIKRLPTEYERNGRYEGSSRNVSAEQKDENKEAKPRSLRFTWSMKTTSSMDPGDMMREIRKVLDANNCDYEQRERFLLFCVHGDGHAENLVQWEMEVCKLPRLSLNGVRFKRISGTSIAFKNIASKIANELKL
ASSAY_SUMMARY: Inhibition of full-length recombinant human GST-tagged MARK3 expressed in baculovirus expression system using biotinylated-Cdc25C peptide substrate measured after 2 hrs by HTRF assay

Suppose we examine the compound Cn1cnc(-c2cnc3c(-c4csc(C(=O)NCC(F)(F)F)c4)cnn3c2)c1 ; what IC50 value has been reported? 13 nM

Suppose we examine the compound O=C(NCC(F)(F)F)c1cc(-c2cnn3cc(-c4ccc(OCCN5CCCCC5)cc4)cnc23)cs1 ; what IC50 value has been reported? 1 nM

Suppose we examine the compound Cn1cc(-c2cnc3c(-c4csc(C(=O)N[C@@H]5CCC[C@@H]5N)c4)cnn3c2)cn1 (racemic) ; what IC50 value has been reported? 2 nM

Suppose we examine the compound CCNC(=O)c1cc(-c2cnn3cc(-c4cnn(C)c4)cnc23)cs1 ; what IC50 value has been reported? 129 nM

Suppose we examine the compound Cn1cc(-c2cnc3c(-c4csc(C(=O)NCC(F)(F)F)c4)cnn3c2)cn1 ; what IC50 value has been reported? 6 nM

Suppose we examine the compound O=C(NCC(F)(F)F)c1cc(-c2cnn3cc(-c4cccnc4)cnc23)cs1 ; what IC50 value has been reported? 70 nM

###

SYSTEM: Tyrosine-protein kinase SYK (Homo sapiens, UniProt P43405)
ASSAY_SUMMARY: Inhibition of full-length recombinant human N-terminal GST-tagged cytoplasmic SYK expressed in baculovirus expression system by Z'-LYTE assay
MEASURED_PARAMETER: pIC50
A value of pIC50 is the negative decimal logarithm of a concentration given in moles per litre.

Suppose we examine the compound O=C(NCC(F)(F)F)c1cc(-c2cnn3cc(-c4ccc(OCCN5CCCCC5)cc4)cnc23)cs1 ; what pIC50 value has been reported? 6.36

Suppose we examine the compound Cc1sc(C(=O)N[C@@H]2[C@H](N)CCCC2(F)F)cc1-c1cnn2cc(Cl)cnc12 ; what pIC50 value has been reported? 4.92

Suppose we examine the compound Cn1cc(-c2cnc3c(-c4csc(C(=O)N[C@@H]5CCCC[C@@H]5N)c4)cnn3c2)cn1 (racemic) ; what pIC50 value has been reported? 7.38

Suppose we examine the compound Cn1cc(-c2cnc3c(-c4csc(C(=O)NCC(F)(F)F)c4)cnn3c2)cn1 ; what pIC50 value has been reported? 6.12

###

SYSTEM: Fibroblast growth factor receptor 2 (Homo sapiens, UniProt P21802)
Sequence (P21802 whole entry): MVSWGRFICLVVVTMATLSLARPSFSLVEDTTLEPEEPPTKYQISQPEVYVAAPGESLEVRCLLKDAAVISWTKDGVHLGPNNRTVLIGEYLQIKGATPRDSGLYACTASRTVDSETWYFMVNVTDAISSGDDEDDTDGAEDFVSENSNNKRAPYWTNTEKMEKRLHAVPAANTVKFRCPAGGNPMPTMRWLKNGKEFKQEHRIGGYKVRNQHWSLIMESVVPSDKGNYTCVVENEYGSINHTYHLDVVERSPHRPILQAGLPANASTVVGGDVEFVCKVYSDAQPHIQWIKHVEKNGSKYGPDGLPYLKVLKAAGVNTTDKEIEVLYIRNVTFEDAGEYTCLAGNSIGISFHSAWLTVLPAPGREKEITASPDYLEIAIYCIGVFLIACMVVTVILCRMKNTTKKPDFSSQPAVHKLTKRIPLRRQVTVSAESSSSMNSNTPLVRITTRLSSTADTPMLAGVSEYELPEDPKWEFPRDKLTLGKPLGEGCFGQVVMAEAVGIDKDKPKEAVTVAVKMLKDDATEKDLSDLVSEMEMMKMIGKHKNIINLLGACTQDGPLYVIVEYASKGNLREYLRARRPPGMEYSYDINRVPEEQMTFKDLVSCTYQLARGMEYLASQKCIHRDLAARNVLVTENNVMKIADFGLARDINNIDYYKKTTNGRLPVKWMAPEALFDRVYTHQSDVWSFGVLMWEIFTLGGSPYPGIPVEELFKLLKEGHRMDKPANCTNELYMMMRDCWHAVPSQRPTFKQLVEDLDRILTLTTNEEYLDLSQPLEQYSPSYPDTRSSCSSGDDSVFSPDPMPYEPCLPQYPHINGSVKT
ASSAY_SUMMARY: Inhibition of recombinant human His-tagged cytoplasmic FGFR2 expressed in baculovirus expression system by Z'-LYTE assay
MEASURED_PARAMETER: pIC50
A value of pIC50 is the negative decimal logarithm of a concentration given in moles per litre.

Suppose we examine the molecule Cn1cc(-c2cnc3c(-c4csc(C(=O)N[C@@H]5CCCC[C@@H]5N)c4)cnn3c2)cn1 (racemic) ; what pIC50 value has been reported? 7.96

Suppose we examine the molecule Cn1cc(-c2cnc3c(-c4csc(C(=O)NCC(F)(F)F)c4)cnn3c2)cn1 ; what pIC50 value has been reported? 6.77

Suppose we examine the molecule O=C(NCC(F)(F)F)c1cc(-c2cnn3cc(-c4ccc(OCCN5CCCCC5)cc4)cnc23)cs1 ; what pIC50 value has been reported? 7.15

Suppose we examine the molecule Cc1sc(C(=O)N[C@@H]2[C@H](N)CCCC2(F)F)cc1-c1cnn2cc(Cl)cnc12 ; what pIC50 value has been reported? 4.77

###

ASSAY_SUMMARY: Oral bioavailability in Sprague-Dawley rat at 5 mL/kg administered through gastric gavage measured after 24 hrs by LC-MS/MS analysis
Assay type: ADME, organism-based
MEASUREMENT_PARAMETERS: in vivo
So I've got a bunch of compounds here, and I need their bioavailability values.

Suppose we examine the compound O=C(NCC(F)(F)F)c1cc(-c2cnn3cc(-c4ccc(OCCN5CCCCC5)cc4)cnc23)cs1 ; what bioavailability value has been reported? 46%

Suppose we examine the compound Cn1cc(-c2cnc3c(-c4csc(C(=O)NCC(F)(F)F)c4)cnn3c2)cn1 ; what bioavailability value has been reported? 53%

###

So I've got a bunch of compounds here, and I need their pIC50 values.
SYSTEM: High affinity nerve growth factor receptor (Homo sapiens, UniProt P04629)
Sequence (P04629 whole entry): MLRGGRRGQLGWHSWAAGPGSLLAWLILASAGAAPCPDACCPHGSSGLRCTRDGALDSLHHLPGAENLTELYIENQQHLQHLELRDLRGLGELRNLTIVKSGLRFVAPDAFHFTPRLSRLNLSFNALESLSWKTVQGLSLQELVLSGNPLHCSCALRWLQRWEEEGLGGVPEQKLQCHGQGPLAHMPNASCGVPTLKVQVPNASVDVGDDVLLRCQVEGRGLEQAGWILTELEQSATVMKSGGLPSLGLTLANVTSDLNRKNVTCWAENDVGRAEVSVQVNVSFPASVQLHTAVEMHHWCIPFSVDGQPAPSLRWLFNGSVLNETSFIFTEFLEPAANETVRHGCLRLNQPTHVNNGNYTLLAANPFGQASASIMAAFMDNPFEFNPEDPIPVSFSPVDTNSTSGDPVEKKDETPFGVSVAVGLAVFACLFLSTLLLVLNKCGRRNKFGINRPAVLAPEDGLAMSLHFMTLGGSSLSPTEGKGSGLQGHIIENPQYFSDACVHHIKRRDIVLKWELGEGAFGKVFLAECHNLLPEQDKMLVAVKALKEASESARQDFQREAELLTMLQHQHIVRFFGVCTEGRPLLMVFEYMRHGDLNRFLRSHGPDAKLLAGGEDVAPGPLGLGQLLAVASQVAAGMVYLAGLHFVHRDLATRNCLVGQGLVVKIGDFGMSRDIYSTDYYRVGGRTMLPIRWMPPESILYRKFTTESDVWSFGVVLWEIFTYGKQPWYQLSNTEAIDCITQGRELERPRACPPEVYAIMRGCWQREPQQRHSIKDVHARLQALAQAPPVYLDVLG
ASSAY_SUMMARY: Inhibition of recombinant human His-tagged cytoplasmic NTRK1 expressed in baculovirus expression system by Z'-LYTE assay
A value of pIC50 is the negative decimal logarithm of a concentration given in moles per litre.

// lookup pIC50 | system=High affinity nerve growth factor receptor (Homo sapiens, UniProt P04629) | key= Cc1sc(C(=O)N[C@@H]2[C@H](N)CCCC2(F)F)cc1-c1cnn2cc(Cl)cnc12 5.68

// lookup pIC50 | system=High affinity nerve growth factor receptor (Homo sapiens, UniProt P04629) | key= Cn1cc(-c2cnc3c(-c4csc(C(=O)NCC(F)(F)F)c4)cnn3c2)cn1 6.27

// lookup pIC50 | system=High affinity nerve growth factor receptor (Homo sapiens, UniProt P04629) | key= Cn1cc(-c2cnc3c(-c4csc(C(=O)N[C@@H]5CCCC[C@@H]5N)c4)cnn3c2)cn1 (racemic) 7.30

// lookup pIC50 | system=High affinity nerve growth factor receptor (Homo sapiens, UniProt P04629) | key= O=C(NCC(F)(F)F)c1cc(-c2cnn3cc(-c4ccc(OCCN5CCCCC5)cc4)cnc23)cs1 6.51
